- ASSAY_PROCEDURE: Toxicity against human NHDF assessed as cell viability at 80 uM incubated for 3 days by MTT assay
- Format: cell-based
- MEASUREMENT_PARAMETERS: NHDF cells, read-out: Activity
MEASURED_ATTRIBUTE: viability at 72 h, 80 µM (%)
Numbers only, in %.

// sample O=c1ccc2nccc3c4ccccc4n1c23 [CANTHIN-6-ONE] , its viability at 72 h, 80 µM was 64

###

- ASSAY_PROCEDURE: Toxicity against human NHDF assessed as cell viability at 40 uM incubated for 3 days by MTT assay
- Assay type: cell-based
- MEASUREMENT_PARAMETERS: NHDF cells, read-out: Activity
MEASURED_ATTRIBUTE: viability at 72 h, 40 µM (%)
One number for each entry, in %.

// sample O=c1ccc2nccc3c4ccccc4n1c23 [CANTHIN-6-ONE] , its viability at 72 h, 40 µM was 80
